Provenance of the data: the supplement of paper PMC12494721

- Test system: Clostridium sporogenes DSM 1664
- protocol: fold change of Tryptamine concentration vs plate DMSO controls (fold change (ratio)); higher = more amine produced, active = hit call of the paper (significant change in both replicates, either direction)
- condition.set: incubation time: 27 h, anaerobic, 37 °C
readout.kind: fold change of Tryptamine concentration
# output: bare number, no unit

- compound: "CC#C[C@]1(O)CC[C@H]2[C@@H]3CCC4=CC(=O)CCC4=C3[C@@H](c3ccc(N(C)C)cc3)C[C@@]21C [Mifepristone] (20 µM)"
  test.target: "Clostridium sporogenes DSM 1664"
  fold change of Tryptamine concentration: 0.911
- compound: "CC(=O)N1CCN(c2ccc(OCC3COC(Cn4ccnc4)(c4ccc(Cl)cc4Cl)O3)cc2)CC1 (stereo unspecified) [Ketoconazole] (20 µM)"
  test.target: "Clostridium sporogenes DSM 1664"
  fold change of Tryptamine concentration: 1.03
- compound: "CCN(Cc1ccncc1)C(=O)C(CO)c1ccccc1 (stereo unspecified) [Tropicamide] (20 µM)"
  test.target: "Clostridium sporogenes DSM 1664"
  fold change of Tryptamine concentration: 1.06
- compound: "O=c1[nH]c(=O)n([C@H]2C[C@H](O)[C@@H](CO)O2)cc1/C=C/Br [Brivudine] (20 µM)"
  test.target: "Clostridium sporogenes DSM 1664"
  fold change of Tryptamine concentration: 1.03
- compound: "CCCCNC(=N)NC(=N)N [Buformin] (20 µM)"
  test.target: "Clostridium sporogenes DSM 1664"
  fold change of Tryptamine concentration: 1.05
- compound: "CC(=O)Nc1cccc(O)c1 [Metacetamol] (20 µM)"
  test.target: "Clostridium sporogenes DSM 1664"
  fold change of Tryptamine concentration: 0.941
- compound: "CNCCC=C1c2ccccc2C=Cc2ccccc21 [Norcyclobenzaprine] (20 µM)"
  test.target: "Clostridium sporogenes DSM 1664"
  fold change of Tryptamine concentration: 0.985
- compound: "C[C@]12CC[C@@H]3c4ccc(O)cc4CC[C@H]3[C@@H]1CC[C@@H]2O [Estradiol-17 beta] (20 µM)"
  test.target: "Clostridium sporogenes DSM 1664"
  fold change of Tryptamine concentration: 0.984

Enquiry: # return recorded fold change of Tryptamine concentration for entry COc1cccc(N(C)C(=S)Oc2ccc3c(c2)CCCC3)n1 [Liranaftate] (20 µM)
Return: 0.974

* * *

- Test system: Klebsiella aerogenes DSM 30053
- protocol: fold change of Putrescine concentration vs plate DMSO controls (fold change (ratio)); higher = more amine produced, active = hit call of the paper (significant change in both replicates, either direction)
- condition.set: incubation time: 27 h, anaerobic, 37 °C
Structures can show the parent of a compound that is named as a salt.
readout.kind: fold change of Putrescine concentration

Below, each entry is followed by its recorded fold change of Putrescine concentration result.
- compound: "C=CC[N@@+]12CC[C@@]34c5ccccc5N5/C=C6/[C@H]7C[C@H]8[C@@]9(CC[N@@+]8(CC=C)C/C7=C/CO)c7ccccc7N(/C=C(/[C@@H](C[C@@H]31)/C(=C\\CO)C2)[C@H]54)[C@@H]69 [Alcuronium chloride] (20 µM)"
  fold change of Putrescine concentration: "0.99 (inactive)"
- compound: "Cn1c(=O)c2c(ncn2CC(O)CO)n(C)c1=O (stereo not drawn) [Diprophylline] (20 µM)"
  fold change of Putrescine concentration: "1.01 (inactive)"

Enquiry: # return recorded fold change of Putrescine concentration for entry C#CCN[C@@H]1CCc2ccccc21 [Rasagiline] (20 µM)
Return: 0.981 (inactive)

Enquiry: # return recorded fold change of Putrescine concentration for entry Nc1nc(CC(=O)Nc2ccc(CCNC[C@H](O)c3ccccc3)cc2)cs1 [Mirabegron] (20 µM)
Return: 1.01 (inactive)

Enquiry: # return recorded fold change of Putrescine concentration for entry CC(=O)Oc1ccccc1C(=O)Oc1ccccc1C(=O)O [Acetylsalicylsalicylic acid] (20 µM)
Return: 0.998 (inactive)

Enquiry: # return recorded fold change of Putrescine concentration for entry NC(=O)[C@@H]1CCCN1C(=O)[C@H](Cc1c[nH]cn1)NC(=O)[C@@H]1CCC(=O)N1 [Thyrotropin-Releasing Hormone] (20 µM)
Return: 1 (inactive)

Enquiry: # return recorded fold change of Putrescine concentration for entry O=C(Oc1cccc2cccnc12)c1ccccc1 [Benzoxiquine] (20 µM)
Return: 1.02 (inactive)

Enquiry: # return recorded fold change of Putrescine concentration for entry Clc1ccccc1CN1CCc2sccc2C1 [Ticlopidine hydrochloride] (20 µM)
Return: 0.989 (inactive)
